- test-system: DR4w4 (DRB1*0401) (Homo sapiens, UniProt P01903+P01911, A100K/A169T/F76Y/I96L/K127E/L162R/M171V/N62H/P40V/Q125Y/R42H/S133A/S149N/S66Y/V115G/V209L/W38E)
- protocol-details: biochemical
- Assay type: binding
No end group written: not given here.
value-kind: pIC50
// scale note: pIC50 = -log10(conc_M); give the bare number

Bench note: what pIC50 did RREVYDFAFRDLCIV [Peptide 1543.25] show? 5.39

Could you tell me which pIC50 is on file for TYISTSQRDDFLNTV [Peptide 1601.27] ? 4.79

// returns reported pIC50 for input KNRLTVAKLMSNLLS [Peptide 89.0064] 7.68

What value of pIC50 has been reported for the following sequence? MVQVEEQQTTLSCNG [Peptide 89.0040] 6.47

Return reported pIC50; argument: ETCMLIQPPKLRSSV [Peptide 89.0029] 6.05

Look up pIC50 for this sequence: FLDVVTIPNSVQISV [Peptide 1601.40] 7.77

Return reported pIC50; argument: VKFLRYQQIEFVSFL [Peptide 89.0052] 5.89

# lookup: pIC50 of KERHVNANKRFHNIM [Peptide 1543.59] 7.26

Cited source for all entries: patent US9340577B2
